SYSTEM NAME: RIPK1 (receptor-interacting protein kinase 1) (Homo sapiens)
Sequence (Q13546 1-671): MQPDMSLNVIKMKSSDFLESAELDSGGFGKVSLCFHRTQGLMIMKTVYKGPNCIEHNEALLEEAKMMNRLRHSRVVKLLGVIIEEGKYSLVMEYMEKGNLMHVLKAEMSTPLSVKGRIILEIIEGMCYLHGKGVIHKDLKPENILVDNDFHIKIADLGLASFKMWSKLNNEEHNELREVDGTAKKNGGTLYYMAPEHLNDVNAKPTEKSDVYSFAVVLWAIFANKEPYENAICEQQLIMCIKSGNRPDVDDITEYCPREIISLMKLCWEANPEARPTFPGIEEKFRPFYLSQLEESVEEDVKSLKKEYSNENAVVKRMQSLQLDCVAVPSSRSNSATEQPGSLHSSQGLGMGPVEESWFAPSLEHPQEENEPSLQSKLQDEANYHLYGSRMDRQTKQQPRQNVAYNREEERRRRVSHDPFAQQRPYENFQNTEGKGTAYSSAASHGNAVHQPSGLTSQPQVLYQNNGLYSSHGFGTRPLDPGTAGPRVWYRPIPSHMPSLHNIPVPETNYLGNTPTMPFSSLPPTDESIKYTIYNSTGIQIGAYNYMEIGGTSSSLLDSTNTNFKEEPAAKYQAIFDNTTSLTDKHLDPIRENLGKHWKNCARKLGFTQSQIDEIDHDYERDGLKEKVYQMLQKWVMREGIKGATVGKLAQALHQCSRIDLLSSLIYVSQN
EXPERIMENT SUMMARY: TR-FRET saturation binding
MEASURED PARAMETER: pKd
To interpret pKd, take it as minus log10 of a concentration measured in moles per litre.

INPUT: Enter reported pKd observed with RIPK1 (receptor-interacting protein kinase 1) (Homo sapiens) for `Nc1ncnc2c1c(-c1ccc3c(c1)CCN3C(=O)Cc1cccc(OC(F)(F)F)c1)cn2CCCNC(=O)CCc1ccc2n1[B-](F)(F)[N+]1=C(c3ccc[nH]3)C=CC1=C2`
OUTPUT: 6.35
